Source: paper PMC10907494

- assayed.system: μ-opioid receptor (MOR) (Rattus norvegicus, UniProt P33535)
- Sequence (P33535 whole entry): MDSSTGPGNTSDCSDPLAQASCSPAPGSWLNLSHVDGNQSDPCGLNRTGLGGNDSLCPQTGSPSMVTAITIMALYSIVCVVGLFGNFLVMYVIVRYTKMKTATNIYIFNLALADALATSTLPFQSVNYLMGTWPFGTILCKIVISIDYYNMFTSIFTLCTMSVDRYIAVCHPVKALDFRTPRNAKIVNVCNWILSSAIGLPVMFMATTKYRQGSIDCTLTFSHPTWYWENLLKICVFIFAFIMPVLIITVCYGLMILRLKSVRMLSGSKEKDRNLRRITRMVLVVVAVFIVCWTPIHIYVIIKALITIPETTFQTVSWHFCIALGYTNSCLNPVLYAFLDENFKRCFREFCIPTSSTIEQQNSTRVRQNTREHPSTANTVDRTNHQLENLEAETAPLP
- assay: biochemical
- condition.summary: estimated IC50, estimated from initial screening at 30, 10 and 3 μM
pIC50: −log10 of the molar value.
metric.name: pIC50

Endpoint output: pIC50 of CSCC[C@H](NC(=O)[C@@H]1Cc2ccc(cc2)-c2cc(ccc2O)C[C@H](N)C(=O)NCC(=O)NCC(=O)N1)C(N)=O [c-(Tyr-m-Phe-p)-M-NH2, H-(cyclo-m,p)-[Tyr-Gly-Gly-Phe]-Met-NH2] . Value?
~6.00

---

- assayed.system: μ-opioid receptor (MOR) (Rattus norvegicus, UniProt P33535)
- assay: biochemical
- condition.summary: estimated IC50, estimated from initial screening at 30, 10 and 3 μM
pIC50: −log10 of the molar value.
metric.name: pIC50

Endpoint output: pIC50 of H-FGGFL-NH2 [[Phe^1,Leu^5]enk-NH2, H-Phe-Gly-Gly-Phe-Leu-NH2, reference compound] . Value?
> 5.52

---

- assayed.system: μ-opioid receptor (MOR) (Rattus norvegicus)
- assay: biochemical
- condition.summary: IC50 ± S.E.M., full-displacement curves; 1.0 nM [3H]DAMGO, rat brain membranes, 25 °C, 60 min; mean of 2 or 3 experiments unless footnoted
Overview of reported pIC50 across a group of compounds:
Conceptually, pIC50 converts a concentration in mol/L into minus its log10.

- CC(C)C[C@H](NC(=O)[C@@H]1Cc2cccc(c2)-c2cc(ccc2O)C[C@H](N)C(=O)NCC(=O)NCC(=O)N1)C(N)=O [c-(Tyr-m-Phe-m)-L-NH2, H-(cyclo-m,m)-[Tyr-Gly-Gly-Phe]-Leu-NH2]: 5.51
- CC(C)C[C@H](NC(=O)[C@@H]1Cc2ccc(O)c(c2)-c2ccc(cc2)C[C@H](N)C(=O)NCC(=O)NCC(=O)N1)C(N)=O [c-(Phe-p-Tyr-m)-L-NH2, H-(cyclo-p,m)-[Phe-Gly-Gly-Tyr]-Leu-NH2]: 5.18

Continue with the compound presented below.
Endpoint output: pIC50 of CSCC[C@H](NC(=O)[C@@H]1Cc2ccc(cc2)-c2cc(ccc2O)C[C@H](N)C(=O)NCC(=O)NCC(=O)N1)C(N)=O [c-(Tyr-m-Phe-p)-M-NH2, H-(cyclo-m,p)-[Tyr-Gly-Gly-Phe]-Met-NH2] . Value?
5.86

---

- assayed.system: μ-opioid receptor (MOR) (Rattus norvegicus, UniProt P33535)
- assay: biochemical
- condition.summary: initial screening, 30 μM
Overview of reported % of radioligand specific binding at 30 μM, mean across a group of compounds:
Give the value in % but do not write % after it.

Study these solved cases before continuing.
• CC(C)C[C@H](NC(=O)[C@@H]1Cc2ccc(cc2)-c2cc(ccc2O)C[C@H](N)C(=O)NCC(=O)NCC(=O)N1)C(N)=O [c-(Tyr-m-Phe-p)-L-NH2, H-(cyclo-m,p)-[Tyr-Gly-Gly-Phe]-Leu-NH2] = 77
• CC(C)C[C@H](NC(=O)[C@@H]1Cc2ccc(cc2)-c2ccc(cc2)C[C@H](N)C(=O)NCC(=O)NCC(=O)N1)C(N)=O [c-(Phe-p-Phe-p)-L-NH2, H-(cyclo-p,p)-[Phe-Gly-Gly-Phe]-Leu-NH2] = 73
• CSCC[C@H](NC(=O)[C@@H]1Cc2ccc(cc2)-c2cc(ccc2O)C[C@H](N)C(=O)NCC(=O)NCC(=O)N1)C(N)=O [c-(Tyr-m-Phe-p)-M-NH2, H-(cyclo-m,p)-[Tyr-Gly-Gly-Phe]-Met-NH2] = 12
• CC(C)C[C@H](NC(=O)[C@@H]1Cc2cccc(c2)-c2cc(ccc2O)C[C@H](N)C(=O)NCC(=O)NCC(=O)N1)C(N)=O [c-(Tyr-m-Phe-m)-L-NH2, H-(cyclo-m,m)-[Tyr-Gly-Gly-Phe]-Leu-NH2] = 12

Continue with the compound presented below.
Endpoint output: % of radioligand specific binding at 30 μM, mean of CC(C)C[C@H](NC(=O)[C@@H]1Cc2ccc(O)c(c2)-c2cc(ccc2O)C[C@H](N)C(=O)NCC(=O)NCC(=O)N1)C(N)=O [c-(Tyr-m-Tyr-m)-L-NH2, H-(cyclo-m,m)-[Tyr-Gly-Gly-Tyr]-Leu-NH2] . Value?
117
